Listing: IC50 of selected binders
# tested target: T1, Rat IL-23R_huFC (rat, UniProt F1LX96 39-369)
# T1 sequence: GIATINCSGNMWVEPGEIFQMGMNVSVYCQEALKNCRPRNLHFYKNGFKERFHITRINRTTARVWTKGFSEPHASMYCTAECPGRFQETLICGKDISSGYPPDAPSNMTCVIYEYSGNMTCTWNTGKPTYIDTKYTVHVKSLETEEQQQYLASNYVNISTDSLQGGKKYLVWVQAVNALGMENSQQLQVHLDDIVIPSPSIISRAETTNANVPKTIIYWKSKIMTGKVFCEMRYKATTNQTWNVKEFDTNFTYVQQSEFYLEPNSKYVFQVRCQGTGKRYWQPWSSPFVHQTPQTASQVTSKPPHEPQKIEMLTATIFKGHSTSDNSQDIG
# experiment description: rat IL-23R competitive binding ELISA

- binder: "XQTWQXFXKKNG (N-terminal glutaric acid; Pen-Pen disulfide; Phe(4-OMe); 2-Nal; α-MeLys; Lys(Ac); NH2) [glutaric acid-[Pen]-QTWQ[Pen]-[Phe(4-OMe)]-[2-Nal]-[α-MeLys]-[Lys(Ac)]-NG-NH2]"
  IC50: "25 to 100 nM"
- binder: "EXQTWQXFXKKNG (N-terminal pyroglutamic acid; Pen-Pen disulfide; Phe(4-OMe); 2-Nal; α-MeLys; Lys(Ac); NH2) [pyroglutamic acid-[Pen]-QTWQ[Pen]-[Phe(4-OMe)]-[2-Nal]-[α-MeLys]-[Lys(Ac)]-NG-NH2]"
  IC50: "25 to 100 nM"
- binder: "XQTWQXFXVKNN (Ac; Pen-Pen disulfide; Phe(4-CONH2); 2-Nal; α-MeVal; Lys(Ac); NH2) [Ac-[Pen]-QTWQ-[Pen]-[Phe(4-CONH2)]-[2-Nal]-[α-MeVal]-[Lys(Ac)]-NN-NH2]"
  IC50: "10 to 25 nM"
- binder: "XQTWQXFXLQNN (Ac; Pen-Pen disulfide; Phe[4-(2-aminoethoxy)]; 2-Nal; α-MeLeu; NH2) [Ac-[Pen]-QTWQ-[Pen]-[Phe[4-(2-aminoethoxy)]-[2-Nal]-[α-MeLeu]-QNN-NH2]"
  IC50: "< 10 nM"
- binder: "XQTWQXFXKKNG (N-terminal isovaleric acid; Pen-Pen disulfide; Phe(4-OMe); 2-Nal; α-MeLys; Lys(Ac); NH2) [isovaleric acid-[Pen]-QTWQ[Pen]-[Phe(4-OMe)]-[2-Nal]-[α-MeLys]-[Lys(Ac)]-NG-NH2]"
  IC50: "25 to 100 nM"
- binder: "XQTWQXFXLKNN (Ac; Pen-Pen disulfide; Phe[4-(2-aminoethoxy)]; 2-Nal; α-MeLeu; Lys(Ac); NH2) [Ac-[Pen]-QTWQ-[Pen]-[Phe[4-(2-aminoethoxy)]-[2-Nal]-[α-MeLeu]-[Lys(Ac)]-NN-NH2]"
  IC50: "< 10 nM"
- binder: "XQTWQXFXKKNN (Ac; Pen-Pen disulfide; Phe(4-CONH2); 2-Nal; α-MeLys; Lys(Ac); NH2) [Ac-[Pen]-QTWQ-[Pen]-[Phe(4-CONH2)]-[2-Nal]-[α-MeLys]-[Lys(Ac)]-NN-NH2]"
  IC50: "25 to 100 nM"
- binder: "XQTWQXYWLENG (Ac; Pen-Pen disulfide; α-MeLeu; NH2) [Ac-[Pen]-QTWQ-[Pen]-Y-[α-MeLeu]-ENG-NH2]"
  IC50: "100 to 1000 nM"
- binder: "XQTWQXFXKKNN (Ac; Pen-Pen disulfide; Phe[4-(2-aminoethoxy)]; 2-Nal; α-MeLys; Lys(Ac); NH2) [Ac-[Pen]-QTWQ-[Pen]-[Phe[4-(2-aminoethoxy)]-[2-Nal]-[α-MeLys]-[Lys(Ac)]-NN-NH2]"
  IC50: "10 to 25 nM"
- binder: "XQTWQXYWXENG (Ac; Pen-Pen disulfide; α-MeOrn; NH2) [Ac-[Pen]-QTWQ-[Pen]-YW-[α-MeOrn]-ENG-NH2]"
  IC50: "100 to 1000 nM"
- binder: "XQTWQXFXKKNG (N-terminal 4-fluorophenylacetic acid; Pen-Pen disulfide; Phe(4-OMe); 2-Nal; α-MeLys; Lys(Ac); NH2) [4-fluorophenylacetic acid-[Pen]-QTWQ-[Pen]-[Phe(4-OMe)]-[2-Nal]-[α-MeLys]-[Lys(Ac)]-NG-NH2]"
  IC50: "100 to 1000 nM"
- binder: "XQTWQXFXKKNG (Ac; Pen-Pen disulfide; Phe(4-OMe); 1-Nal; α-MeLys; Lys(Ac); NH2) [Ac-[Pen]-QTWQ-[Pen]-[Phe(4-OMe)]-[1-Nal]-[α-MeLys]-[Lys(Ac)]-NG-NH2]"
  IC50: "100 to 1000 nM"
- binder: "XQTWQXFWKKNG (Ac; Pen-Pen disulfide; Phe(4-OMe); α-MeLys; Lys(Ac); NH2) [Ac-[Pen]-QTWQ-[Pen]-[Phe-(4-OMe)]-W-[α-MeLys]-[Lys(Ac)]-NG-NH2]"
  IC50: "25 to 100 nM"
- binder: "XQTWQXFXKENA (Ac; Pen-Pen disulfide; Phe[4-(2-aminoethoxy)]; 2-Nal; α-MeLys; NH2) [Ac-[Pen]-QTWQ-[Pen]-[Phe[4-(2-aminoethoxy)]-[2-Nal]-[α-MeLys]-ENA-NH2]"
  IC50: "25 to 100 nM"
- binder: "XQTWQXYXKENG (Ac; Pen-Pen disulfide; 2-Nal; α-MeLys; NH2) [Ac-[Pen]-QTWQ-[Pen]-Y-[2-Nal]-[α-MeLys]-ENG-NH2]"
  IC50: "100 to 1000 nM"
- binder: "XQTWQXFXKENG (Ac; Pen-Pen disulfide; Phe(4-OMe); 2-Nal; α-MeLys; NH2) [Ac-[Pen]-QTWQ-[Pen]-[Phe(4-OMe)]-[2-Nal]-[α-MeLys]-ENG-NH2]"
  IC50: "100 to 1000 nM"
- binder: "XQTWQXFXKKNG (N-terminal succinic acid; Pen-Pen disulfide; Phe(4-OMe); 2-Nal; α-MeLys; Lys(Ac); NH2) [succinic acid-[Pen]-QTWQ[Pen]-[Phe(4-OMe)]-[2-Nal]-[α-MeLys]-[Lys(Ac)]-NG-NH2]"
  IC50: "25 to 100 nM"
- binder: "XQTWQXFXKKNG (Ac; Pen-Pen disulfide; Phe[4-(2-aminoethoxy)]; 2-Nal; α-MeLys; Lys(Ac); NH2) [Ac-[Pen]-QTWQ-[Pen]-[Phe[4-(2-aminoethoxy)]-[2-Nal]-[α-MeLys]-[Lys(Ac)]-NG-NH2]"
  IC50: "25 to 100 nM"
- binder: "XRTWQXYWRKFGXK (Ac; Pen-Pen disulfide; AEA; (D)-Lys; NH2) [Ac-[Pen]-RTWQ-[Pen]-YWRKFG-[AEA]-[(D)-Lys]-NH2]"
  IC50: "25 to 100 nM"
- binder: "XQTWQXFXKKNG (Ac; Pen-Pen disulfide; Phe(4-OMe); 2-Nal; α-MeLys; Lys(Ac); NH2) [Ac-[Pen]-QTWQ-[Pen]-[Phe(4-OMe)]-[2-Nal]-[α-MeLys]-[Lys(Ac)]-NG-NH2]"
  IC50: "25 to 100 nM"
- binder: "XQTWQXFXKKNG (N-terminal 4-methylmorpholine-2,6-dione; Pen-Pen disulfide; Phe(4-OMe); 2-Nal; α-MeLys; Lys(Ac); NH2) [4-methylmorpholine-2,6-dione-[Pen]-QTWQ[Pen]-[Phe(4-OMe)]-[2-Nal]-[α-MeLys]-[Lys(Ac)]-NG-NH2]"
  IC50: "25 to 100 nM"
